Data provenance: ChEMBL document CHEMBL3769304

Assay method text: Kinetic solubility of the compound in PBS at pH 7.4 after 24 hrs by UPLC/MS analysis
Format: physicochemical
Condition label: read-out: Kinetic_solubility
Readout label: solubility kinetic at 24 h

Use the examples below as a reference point.
CCCOc1ccc(COC(=O)N[C@H]2CNC2=O)cc1; > 250 µM
O=C(N[C@H]1CNC1=O)OCCCCC1CCC(F)(F)CC1; > 250 µM

Now for another entry.
Could you please provide reported solubility kinetic at 24 h for O=C(N[C@H]1CNC1=O)OCc1ccc2c(c1)OC(F)(F)O2 ? Thanks!
> 250 µM
